Molecular target: UniProt Q9YQ12
Sequence (Q9YQ12 whole entry): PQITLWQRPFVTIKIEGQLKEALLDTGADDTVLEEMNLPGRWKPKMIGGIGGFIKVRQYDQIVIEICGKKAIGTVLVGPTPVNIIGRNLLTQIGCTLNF
Experiment: Inhibition of purified HIV-1 protease using [Arg-Glu(EDANS)-Ser-Gin-Asn-Tyr-Ile-Val-Gin-Lys(dabcyl)-Arg) as fluorogenic substrate at 0.4 ng/ml by fluorescence assay
assay metric: Inhibition (%)
Express your answer in %, writing the number without its unit.

>  <record smiles>
CC(C)CN(C[C@@H](O)[C@H](Cc1ccccc1)NC(=O)O[C@H]1CO[C@H]2[C@@H]1OC[C@H]2O)S(=O)(=O)c1ccc(N)cc1

>  <system tested>
UniProt Q9YQ12

>  <measured value>
57.7

$$$$
>  <record smiles>
COc1ccc(S(=O)(=O)N(CC(C)C)C[C@@H](O)[C@H](Cc2ccccc2)NC(=O)O[C@H]2CO[C@H]3[C@@H]2OC[C@H]3OC)cc1

>  <system tested>
UniProt Q9YQ12

>  <measured value>
83.2

$$$$
>  <record smiles>
COc1ccc(S(=O)(=O)N(CC(C)C)C[C@@H](O)[C@H](Cc2ccccc2)NC(=O)O[C@H]2CO[C@H]3[C@@H]2OC[C@H]3O[N+](=O)[O-])cc1

>  <system tested>
UniProt Q9YQ12

>  <measured value>
62.6

$$$$

-- ask Reported Inhibition, molecule COc1ccc(S(=O)(=O)N(CC(C)C)C[C@@H](O)[C@H](Cc2ccccc2)NC(=O)O[C@H]2CO[C@H]3[C@@H]2OC[C@H]3O)cc1 : ____
-- reply 74.2

-- ask Reported Inhibition, molecule CO[C@@H]1CO[C@H]2[C@@H]1OC[C@@H]2OC(=O)N[C@@H](Cc1ccccc1)[C@H](O)CN(CC(C)C)S(=O)(=O)c1ccc(N)cc1 : ____
-- reply 59.6

-- ask Reported Inhibition, molecule CC(C)CN(C[C@@H](O)[C@H](Cc1ccccc1)NC(=O)O[C@H]1CO[C@H]2[C@@H]1OC[C@H]2O[N+](=O)[O-])S(=O)(=O)c1ccc(N)cc1 : ____
-- reply 75.7
